molecular target: full-length human PKCι (Homo sapiens); construct: Recombinant, full-length human PKCι expressed in Sf21 insect cells is also commercially available; test: PKCι IC50 IMAP fluorescence polarisation assay, full-length enzyme, 150 μM ATP; settings: read-out: IC50 in IMAP assay against full length PKCi at 150 μM ATP
Sequence (P41743 whole entry): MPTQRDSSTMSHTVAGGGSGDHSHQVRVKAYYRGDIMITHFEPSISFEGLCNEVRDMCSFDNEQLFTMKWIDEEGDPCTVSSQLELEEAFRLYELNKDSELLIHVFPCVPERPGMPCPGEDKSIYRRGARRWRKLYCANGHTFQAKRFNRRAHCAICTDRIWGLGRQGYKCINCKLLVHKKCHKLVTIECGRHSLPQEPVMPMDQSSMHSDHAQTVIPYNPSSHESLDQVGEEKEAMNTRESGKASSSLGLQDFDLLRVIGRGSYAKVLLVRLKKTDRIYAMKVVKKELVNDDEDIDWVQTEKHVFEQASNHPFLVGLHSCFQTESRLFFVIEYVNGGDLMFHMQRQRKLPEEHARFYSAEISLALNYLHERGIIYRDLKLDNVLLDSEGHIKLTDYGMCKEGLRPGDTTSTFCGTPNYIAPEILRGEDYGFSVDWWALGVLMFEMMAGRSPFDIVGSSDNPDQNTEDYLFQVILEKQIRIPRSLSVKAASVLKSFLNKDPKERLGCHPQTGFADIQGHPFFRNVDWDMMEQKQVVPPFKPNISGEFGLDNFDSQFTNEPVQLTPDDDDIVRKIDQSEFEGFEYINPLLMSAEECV
Recorded endpoint: IC50

As a guide, the following entries are already answered.
Molecule	IC50
c1cc(-c2nc(N3CCNCC3)c3c(C4CC4)cncc3n2)cc(Nc2nc3n(n2)CCCC3)n1	< 0.1 µM
COc1ccc(Cl)c(-c2cc3c(-c4nc(N[C@H]5CCNCC5(C)C)c5c(C6CC6)cncc5n4)ccnc3[nH]2)c1	< 0.1 µM
CC1CNCCC1Nc1nc(-c2ccnc(Nc3nc(F)ccc3F)c2)nc2cncc(C3CCC3)c12 (stereo not drawn)	< 0.1 µM
CC1(C)CNCCC1Nc1nc(-c2ccnc(Nc3nc(F)cc(F)c3F)c2)nc2cncc(C3CCC3)c12 (stereo not drawn)	< 0.1 µM
CC1(C)CNCCC1Nc1nc(-c2ccnc(Nc3nc(C4CC4)cs3)c2)nc2cncc(C3CC3)c12 (stereo not drawn)	0.1 to 1 µM

IN: If you can, please state the reported IC50 value of Fc1ccc(F)c(Nc2cc(-c3nc(N4CCOC5CNCC54)c4c(C5CCC5)cncc4n3)ccn2)n1 (stereo not drawn) .
OUT: < 0.1 µM

IN: Try the molecule O[C@@H]1CNCC[C@H]1Nc1nc(-c2ccnc(Nc3ncc(F)cc3F)c2)nc2cncc(C3CCC3)c12 (racemic)
OUT: < 0.1 µM

IN: Try the molecule FC(F)(F)c1cc2c(-c3nc(N4CC[C@H]5CNC[C@H]54)c4c(C5CC5)cncc4n3)ccnc2[nH]1
OUT: < 0.1 µM

IN: Try the molecule CC1(C)CNCC[C@@H]1Nc1nc(-c2ccnc(Nc3cncc(F)c3)c2)nc2cncc(C3CC3)c12
OUT: 0.1 to 1 µM

IN: Try the molecule CS(=O)(=O)c1cc2c(-c3nc(N4CCNCC4)c4c(C5CCC5)cncc4n3)ccnc2[nH]1
OUT: < 0.1 µM

IN: Try the molecule CC1(C)CNCC[C@@H]1Nc1nc(-c2ccnc(Nc3ncccc3Cl)c2)nc2cncc(C3CCC3)c12
OUT: < 0.1 µM

IN: Try the molecule CC1(C)CNCC[C@@H]1Nc1nc(-c2ccnc(Nc3ccc(F)cn3)c2)nc2cncc(C3CC3)c12
OUT: < 0.1 µM

IN: Try the molecule FC(F)(F)c1cncc2nc(-c3ccnc4[nH]c5ccccc5c34)nc(N3CCNCC3)c12
OUT: 0.1 to 1 µM

IN: Try the molecule N[C@H]1C[C@H](Nc2nc(-c3ccnc4[nH]c5ccccc5c34)nc3cncc(C4CCC4)c23)C[C@H]1F (racemic)
OUT: 0.1 to 1 µM

IN: Try the molecule O[C@@H]1CNCC[C@H]1Nc1nc(-c2ccnc(Nc3nc(F)cc(F)c3F)c2)nc2cncc(C3CC3)c12 (racemic)
OUT: < 0.1 µM
